Experiment: Hygroscopicity (sorption/desorption)
Type: physicochemical
Conditions: 80% r.h., 1 day, 25° C.
readout-name: Hygroscopicity: After 1 day at 80% r.h.

In [3]: df
Out[3]:
                                   compound                             readout_name  result_value
0  Cn1c(Nc2ccc(C(F)(F)F)cc2)nc2cc(Oc3ccnc(-c4ncc(C(F)(F)F)[nH]4)c3)ccc21  Hygroscopicity: After 1 day at 80% r.h.             0
1  CS(=O)(=O)O.Cn1c(Nc2ccc(C(F)(F)F)cc2)nc2cc(Oc3ccnc(-c4ncc(C(F)(F)F)[nH]4)c3)ccc21 [Mesylate]  Hygroscopicity: After 1 day at 80% r.h.           4.0
2  Cn1c(Nc2ccc(C(F)(F)F)cc2)nc2cc(Oc3ccnc(-c4ncc(C(F)(F)F)[nH]4)c3)ccc21.O=C(O)/C=C\C(=O)O [Maleate]  Hygroscopicity: After 1 day at 80% r.h.           0.8
3  CCS(=O)(=O)O.Cn1c(Nc2ccc(C(F)(F)F)cc2)nc2cc(Oc3ccnc(-c4ncc(C(F)(F)F)[nH]4)c3)ccc21 [Esylate]  Hygroscopicity: After 1 day at 80% r.h.           5.3

###

Listed here are compounds together with their documented half-life.
Assay: Bioavailability study of API and salts of API in dogs
Format: in vivo, beagle dogs
Conditions: beagle, dog, plasma, single 100 mg oral dose, fasting, mean and sd
readout-name: half-life (h)

>>> print(df.to_string())
                                   compound  result_value
0  CS(=O)(=O)O.Cn1c(Nc2ccc(C(F)(F)F)cc2)nc2cc(Oc3ccnc(-c4ncc(C(F)(F)F)[nH]4)c3)ccc21 [Mesylate]          21.4
1  Cn1c(Nc2ccc(C(F)(F)F)cc2)nc2cc(Oc3ccnc(-c4ncc(C(F)(F)F)[nH]4)c3)ccc21.O=C(O)/C=C\C(=O)O [Maleate]          18.8

###

Test: Aqueous solubility of salts in deionized water
Conditions: deionized water, water, thermodynamic from solid
Listed here are molecules together with their documented solubility.
readout-name: solubility (µg/mL)

In [3]: df
Out[3]:
                                   molecule  readout_name  unit_tag  result_value
0  Cl.Cn1c(Nc2ccc(C(F)(F)F)cc2)nc2cc(Oc3ccnc(-c4ncc(C(F)(F)F)[nH]4)c3)ccc21 [Hydrochloride]    solubility     µg/mL            10
1  Cn1c(Nc2ccc(C(F)(F)F)cc2)nc2cc(Oc3ccnc(-c4ncc(C(F)(F)F)[nH]4)c3)ccc21.O=C(O)/C=C\C(=O)O [Maleate]    solubility     µg/mL            17
2  Cn1c(Nc2ccc(C(F)(F)F)cc2)nc2cc(Oc3ccnc(-c4ncc(C(F)(F)F)[nH]4)c3)ccc21    solubility     µg/mL             9
3  CS(=O)(=O)O.Cn1c(Nc2ccc(C(F)(F)F)cc2)nc2cc(Oc3ccnc(-c4ncc(C(F)(F)F)[nH]4)c3)ccc21 [Mesylate]    solubility     µg/mL             4

###

Test: Intrinsic dissolution rate
Assay type: physicochemical
Conditions: Water; 37° C.
readout-name: Intrinsic dissolution rate

                                   molecule                readout_name            result_value
0  Cn1c(Nc2ccc(C(F)(F)F)cc2)nc2cc(Oc3ccnc(-c4ncc(C(F)(F)F)[nH]4)c3)ccc21.O=C(O)/C=C\C(=O)O [Maleate]  Intrinsic dissolution rate  0.0076 mg min^−1 cm^−2
1  CCS(=O)(=O)O.Cn1c(Nc2ccc(C(F)(F)F)cc2)nc2cc(Oc3ccnc(-c4ncc(C(F)(F)F)[nH]4)c3)ccc21 [Esylate]  Intrinsic dissolution rate  0.0036 mg min^−1 cm^−2
2  CS(=O)(=O)O.Cn1c(Nc2ccc(C(F)(F)F)cc2)nc2cc(Oc3ccnc(-c4ncc(C(F)(F)F)[nH]4)c3)ccc21 [Mesylate]  Intrinsic dissolution rate  0.0024 mg min^−1 cm^−2
3  Cn1c(Nc2ccc(C(F)(F)F)cc2)nc2cc(Oc3ccnc(-c4ncc(C(F)(F)F)[nH]4)c3)ccc21  Intrinsic dissolution rate       0 mg min^−1 cm^−2

###

Assay: Aqueous solubility of API as a function of pH (shake flask method)
Format: physicochemical
Conditions: aqueous HCl or NaOH solution, ionic strength 0.15 (KCl), aqueous buffer, thermodynamic from solid; pH 10.13; room temperature, 5 days
readout-name: solubility at 5 days (µg/mL)

                                   molecule          readout_name  result_value
0  Cn1c(Nc2ccc(C(F)(F)F)cc2)nc2cc(Oc3ccnc(-c4ncc(C(F)(F)F)[nH]4)c3)ccc21 [API]  solubility at 5 days           0.3

###

Experiment: Stability: degradation products (DP) and appearance (color) under stress conditions
Format: physicochemical
Conditions: Unstressed
Procedure: Column: Symmetry C18 (Waters), 3.5 μm, 3×150 mm Mobile phase: A=0.1% TFA in water; B=acetonitrile Gradient: 20 to 100% B in 10 minutes Column temperature: 40° C. Stability of the three salts with respect to color and degradation products were assessed under various conditions.
Listed here are compounds together with their documented DP.
readout-name: DP (%)

>>> df
                                   compound  result_value
0  Cn1c(Nc2ccc(C(F)(F)F)cc2)nc2cc(Oc3ccnc(-c4ncc(C(F)(F)F)[nH]4)c3)ccc21           0.6
1  CS(=O)(=O)O.Cn1c(Nc2ccc(C(F)(F)F)cc2)nc2cc(Oc3ccnc(-c4ncc(C(F)(F)F)[nH]4)c3)ccc21 [Mesylate]           0.5
2  CCS(=O)(=O)O.Cn1c(Nc2ccc(C(F)(F)F)cc2)nc2cc(Oc3ccnc(-c4ncc(C(F)(F)F)[nH]4)c3)ccc21 [Esylate]           0.5
3  Cn1c(Nc2ccc(C(F)(F)F)cc2)nc2cc(Oc3ccnc(-c4ncc(C(F)(F)F)[nH]4)c3)ccc21.O=C(O)/C=C\C(=O)O [Maleate]           0.3

###

Experiment: Stability: degradation products (DP) and appearance (color) under stress conditions
Assay type: physicochemical
Set-up: key: A: No change of color; B: Slight discoloration; C: Medium discoloration; D: Strong discoloration; ↓: Suspension; *: Clear solution after stress test; —: no change; x: test not performed
Conditions: Xenon light (approx. 1200 kLuxh); Bulk (HPLC)
Method: Column: Symmetry C18 (Waters), 3.5 μm, 3×150 mm Mobile phase: A=0.1% TFA in water; B=acetonitrile Gradient: 20 to 100% B in 10 minutes Column temperature: 40° C. Stability of the three salts with respect to color and degradation products were assessed under various conditions.
readout-name: CL

In [3]: df
Out[3]:
                                   molecule  result_value
0  CS(=O)(=O)O.Cn1c(Nc2ccc(C(F)(F)F)cc2)nc2cc(Oc3ccnc(-c4ncc(C(F)(F)F)[nH]4)c3)ccc21 [Mesylate]             A
1  Cn1c(Nc2ccc(C(F)(F)F)cc2)nc2cc(Oc3ccnc(-c4ncc(C(F)(F)F)[nH]4)c3)ccc21             A
2  CCS(=O)(=O)O.Cn1c(Nc2ccc(C(F)(F)F)cc2)nc2cc(Oc3ccnc(-c4ncc(C(F)(F)F)[nH]4)c3)ccc21 [Esylate]             A
3  Cn1c(Nc2ccc(C(F)(F)F)cc2)nc2cc(Oc3ccnc(-c4ncc(C(F)(F)F)[nH]4)c3)ccc21.O=C(O)/C=C\C(=O)O [Maleate]             A

###

Assay: Determination of solubility at 25° C.
Type: physicochemical
Settings: 0.1N HCl, 25 °C, simulated gastric fluid, thermodynamic from solid; read-out: Solubility (approx. at 25° C.) (HPLC)
Listed here are compounds together with their documented solubility.
readout-name: solubility (µg/mL)

In [3]: df
Out[3]:
                                   compound  result_value
0  Cn1c(Nc2ccc(C(F)(F)F)cc2)nc2cc(Oc3ccnc(-c4ncc(C(F)(F)F)[nH]4)c3)ccc21.O=C(O)/C=C\C(=O)O [Maleate]          2300
1  Cn1c(Nc2ccc(C(F)(F)F)cc2)nc2cc(Oc3ccnc(-c4ncc(C(F)(F)F)[nH]4)c3)ccc21 [API]           200
2  CCS(=O)(=O)O.Cn1c(Nc2ccc(C(F)(F)F)cc2)nc2cc(Oc3ccnc(-c4ncc(C(F)(F)F)[nH]4)c3)ccc21 [Esylate]          3700
3  CS(=O)(=O)O.Cn1c(Nc2ccc(C(F)(F)F)cc2)nc2cc(Oc3ccnc(-c4ncc(C(F)(F)F)[nH]4)c3)ccc21 [Mesylate]          5700
